Test system: Escherichia coli TOP10
Experiment: shrunken log2 fold change of peptide-encoding DNA abundance (4.5 h post-induction vs induction); higher = less antimicrobial activity (less host growth inhibition)
Conditions: time post-induction: 4.5 h; library: site-saturation at positions 5, 18, 19, 20
assayEndpoint: shrunken log2 fold change
Number only, please.

# example entries with known answers
> print(dat)
          constructsequence              testtarget  numericresult
 1  RRIRHRPPRLPRPRPRPQENPRP  Escherichia coli TOP10         -0.245
 2  RRIRIRPPRLPRPRPRPRRPPRP  Escherichia coli TOP10          0.233
 3  RRIRCRPPRLPRPRPRPYLQPRP  Escherichia coli TOP10         -0.144
 4  RRIRPRPPRLPRPRPRPGKRPRP  Escherichia coli TOP10          0.389
 5  RRIRFRPPRLPRPRPRPLYVPRP  Escherichia coli TOP10         -0.631
 6  RRIRDRPPRLPRPRPRPQIFPRP  Escherichia coli TOP10       -0.00965
 7  RRIRLRPPRLPRPRPRPDFRPRP  Escherichia coli TOP10         0.0254
 8  RRIRDRPPRLPRPRPRPTKCPRP  Escherichia coli TOP10        -0.0929
 9  RRIRFRPPRLPRPRPRPHGKPRP  Escherichia coli TOP10        -0.0579
10  RRIRGRPPRLPRPRPRPGFQPRP  Escherichia coli TOP10          0.157

Req: # shrunken log2 fold change lookup, item "RRIRNRPPRLPRPRPRPCWKPRP"
Resp: -0.0657

Req: Endpoint output: shrunken log2 fold change of "RRIRGRPPRLPRPRPRPYNHPRP" . Value?
Resp: -0.983

Req: Reported shrunken log2 fold change, sequence "RRIRERPPRLPRPRPRPPRGPRP" : ____
Resp: 0.519

Req: Which value of shrunken log2 fold change has been reported for "RRIRDRPPRLPRPRPRPPFQPRP" in the records?
Resp: 0.193

Req: # shrunken log2 fold change lookup, item "RRIRCRPPRLPRPRPRPRDEPRP"
Resp: 0.342

* * *

Test system: Escherichia coli TOP10;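 note: peptides expressed intracellularly from a pBAD plasmid library in pooled LB shake-flask culture, induced with 0.3% L-arabinose, DNA abundance read by NGS, three biological replicates, DESeq2 with apeglm shrinkage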
Assay: shrunken log2 fold change of peptide-encoding DNA abundance (4.5 h post-induction vs induction); higher = less antimicrobial activity (less host growth inhibition)
Settings: time post-induction: 4.5 h; library: site-saturation at positions 5, 18, 19, 20
# shrunken log2 fold change per entry
# answer = number (no unit)

> print(dat)
         constructsequence  numericresult
1  RRIRMRPPRLPRPRPRPRKRPRP              3
2  RRIRGRPPRLPRPRPRPEDAPRP           1.65
3  RRIRYRPPRLPRPRPRPQWMPRP          -0.19
4  RRIRARPPRLPRPRPRPVTVPRP           2.71
5  RRIRIRPPRLPRPRPRPWTFPRP         0.0921
6  RRIRFRPPRLPRPRPRPAVEPRP          0.509
7  RRIRFRPPRLPRPRPRPYQFPRP         0.0166

Field: next sequence
Req: So what does the record say about shrunken log2 fold change for "RRIRARPPRLPRPRPRPPIWPRP" ?
Resp: 0.507
